Target or test system: UniProt:Q29010
Sequence (Q29010 whole entry): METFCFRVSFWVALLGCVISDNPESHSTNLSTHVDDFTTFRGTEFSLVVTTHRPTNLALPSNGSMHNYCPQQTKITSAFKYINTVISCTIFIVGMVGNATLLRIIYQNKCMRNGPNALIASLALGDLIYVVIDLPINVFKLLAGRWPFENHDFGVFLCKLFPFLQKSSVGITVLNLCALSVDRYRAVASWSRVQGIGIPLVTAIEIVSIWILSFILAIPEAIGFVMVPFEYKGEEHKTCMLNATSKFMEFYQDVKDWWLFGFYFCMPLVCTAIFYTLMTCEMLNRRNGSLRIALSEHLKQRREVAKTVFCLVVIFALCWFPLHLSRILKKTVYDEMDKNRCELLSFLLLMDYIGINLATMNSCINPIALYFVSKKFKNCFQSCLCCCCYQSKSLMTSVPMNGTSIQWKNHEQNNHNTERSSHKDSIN
Experimental details: The compound was tested for binding inhibitory activity against Endothelin A receptor from porcine aortic smooth muscle membranes.
Value type: IC50 max

// worked examples, IC50 max included
CC(C)C[C@@H]1NC(=O)[C@@H](C(C)C)NC(=O)[C@H](CS)NC(=O)[C@@H](CC(=O)O)NC(=O)[C@@H](Cc2c[nH]c3ccccc23)NC1=O (single isomer, unassigned) ... 240 nM
CC[C@H](C)[C@@H]1NC(=O)[C@@H](C(C)C)NC(=O)[C@@H]2CCCN2C(=O)[C@@H](CC(=O)O)NC(=O)[C@@H](Cc2c[nH]c3ccccc23)NC1=O (stereo in doubt) ... 230 nM
CC(C)C[C@@H]1NC(=O)[C@@H](C(C)C)NC(=O)[C@H](CC(=O)O)NC(=O)[C@@H](CC(=O)O)NC(=O)[C@@H](Cc2c[nH]c3ccccc23)NC1=O (single isomer, unassigned) ... 180 nM
CC(C)C[C@@H]1NC(=O)[C@@H](C(C)C)NC(=O)[C@H](CCCN=C(N)N)NC(=O)[C@@H](CC(=O)O)NC(=O)[C@@H](Cc2c[nH]c3ccccc23)NC1=O (single isomer, unassigned) ... 150 nM

QUERY: Form entry - test system: UniProt:Q29010; read-out: IC50 max; molecule: CC(C)C[C@@H]1NC(=O)[C@@H](C(C)C)NC(=O)[C@H](C)NC(=O)[C@H](CCC(=O)O)NC(=O)[C@@H](Cc2c[nH]c3ccccc23)NC1=O (single isomer, unassigned)
RESULT: > 100000 nM

====

Target or test system: UniProt:Q29010
Experimental details: The compound was tested for binding inhibitory activity against Endothelin A receptor from porcine aortic smooth muscle membranes.
Listing of recorded IC50 max by entry.
Form entry: value (nM) — number only.

CC(C)C[C@@H]1NC(=O)[C@@H](C2CCCC2)NC(=O)[C@@H]2CCCN2C(=O)[C@@H](CC(=O)O)NC(=O)[C@@H](Cc2c[nH]c3ccccc23)NC1=O (single isomer, unassigned) ... 4
CC(C)[C@H]1NC(=O)[C@H](C)NC(=O)[C@@H](CC(=O)O)NC(=O)[C@@H](Cc2c[nH]c3ccccc23)NC(=O)[C@@H]2CCCN2C1=O (single isomer, unassigned) ... 8500
CC(C)C[C@@H]1NC(=O)[C@@H](C(C)C)NC(=O)CNC(=O)[C@@H](CC(=O)O)NC(=O)[C@@H](Cc2c[nH]c3ccccc23)NC1=O (single isomer, unassigned) ... 160

Now take the following compound into account.
QUERY: Item under review: CC(C)C[C@@H]1NC(=O)[C@@H](C(C)C)NC(=O)[C@H](C)NC(=O)[C@@H](CC(=O)O)NC(=O)[C@@H](Cc2c[nH]c3ccccc23)NC1=O (single isomer, unassigned) . Reported IC50 max?
RESULT: 110

FYI, the data here is from ChEMBL document CHEMBL1128172.
